# Tested on: 556581-035-R-J1-PDC spheroids with HUVEC/MSC, viability;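 further: spheroids exposed to compounds for 7 days before readout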
# EXPERIMENT SUMMARY: Anticancer human tumor 556581-035-R-J1-PDC patient-derived ovarian carcinoma cell line growth inhibition [IpAb]; active means viability on the fitted dose curve at most 10% of control; inactive means the rest
# EXPERIMENTAL SETUP: second compound 0.0316 µM; first compound 10 µM
Classes used: y = active, n = inactive

| COMPOUND | LABEL CLASS |
| --- | --- |
| C=CCn1c(=O)c2cnc(Nc3ccc(N4CCN(C)CC4)cc3)nc2n1-c1cccc(C(C)(C)O)n1 + CCN1CCN(Cc2ccc(Nc3ncc(F)c(-c4cc(F)c5nc(C)n(C(C)C)c5c4)n3)nc2)CC1 | n |
| Cn1ncc(Cl)c1-c1cc(C(=O)NC(CN)Cc2cccc(F)c2)sc1Cl (stereo not drawn) + CCN1CCN(Cc2ccc(Nc3ncc(F)c(-c4cc(F)c5nc(C)n(C(C)C)c5c4)n3)nc2)CC1 | y |
| CCCS(=O)(=O)Nc1ccc(F)c(C(=O)c2c[nH]c3ncc(-c4ccc(Cl)cc4)cc23)c1F + CCN1CCN(Cc2ccc(Nc3ncc(F)c(-c4cc(F)c5nc(C)n(C(C)C)c5c4)n3)nc2)CC1 | n |
